System: HOP-62
Test: NCI tumour cell line growth inhibition, 48 h
Active and inactive are the calls of the source. Rule as the data show it: active = GI50 up to about 1.1 µM and inactive = higher.
Form field: GI50 (one value per entry).

Example entries and their recorded answers appear below.
Clc1cccc(Cl)c1C1SCc2nc3cc4ccccc4cc3n21 (stereo not given); > 100 µM (inactive)
O=[N+]([O-])c1ccc2nc(Cl)n[n+]([O-])c2c1; 17.1 µM (inactive)
Cc1ccc(-c2nc3cc([N+](=O)[O-])ccc3[nH]2)cc1; > 100 µM (inactive)
O=C(c1c(F)c(F)c(F)c(F)c1F)c1c(F)c(F)c(F)c(F)c1F; 1.81 µM (inactive)
COc1ccc2oc(=O)c(CC=C(C)C)c(O)c2c1C; > 100 µM (inactive)

## Task Quote GI50 with test system HOP-62 for O=c1nc(NC(c2ccccc2)(c2ccccc2)c2ccccc2)ccn1CCCl
## Result 21.5 µM (inactive)

## Task Param request: GI50 | system HOP-62 | item Cc1c2c(c(O)c3c(O)cccc13)C(=O)C1(O)C(=O)C(C(=O)NCNc3ccc(C(N)=O)cn3)=C(O)C(N(C)C)C1C2 (stereo not given)
## Result 6 µM (inactive)

## Task Recall the reported GI50 of Nc1nc(O)c2nc(CNc3ccc(C(=O)NC(CCC(=O)O)C(=O)O)cc3)cnc2n1 (stereo not given) on HOP-62 and write it down.
## Result > 100 µM (inactive)

## Task Specify the recorded GI50 for O=C1CSC(c2cc3cc(Br)ccc3nc2Cl)N1c1ccc(Cl)cc1 (stereo not given) , system: HOP-62.
## Result 25.8 µM (inactive)

## Task Jot down GI50 (HOP-62) of COc1cccc(N2N=C3c4ccccc4-n4c(nc5ccccc54)C3C2N)c1 (stereo not given) .
## Result > 100 µM (inactive)

----------
System: SN12C
Assay: NCI tumour cell line growth inhibition, 48 h
Active and inactive are the calls of the source. Cut-off read from the data, not from the text of the source: active = GI50 up to about 1.1 µM and inactive = higher.
Measured GI50, listed per entry for reference.

Illustrative cases are given below, each with its answer.
O=P1(Oc2ccccc2)N=P(c2ccccc2)(c2ccccc2)C=C(c2ccc(Cl)cc2)N1 (centres undefined); 16.6 µM (inactive)
Cc1c(C)c(C)c(-n2c(=O)n(C)c(=O)n2-c2cc(C(C)(C)C)cc(C(C)(C)C)c2O)c(C)c1C; 9.44 µM (inactive)
COC(=O)[C@@]12C3=NO[C@]1(C(=O)OC)C(O[Si](C)(C)C(C)(C)C)[C@@H](OC(C)=O)[C@@H](OC(C)=O)[C@@H]2[C@@H](OCc1ccccc1)CC3 (some centres undefined); > 100 µM (inactive)
O=C(O)/C(Cl)=C(\Cl)C(=O)Nc1ccc(Cl)c(Cl)c1Cl; 20.9 µM (inactive)
Nc1nc(CCC(=O)Nc2cccc(C(F)(F)F)c2)cc(-c2ccc3ccccc3c2)n1; > 100 µM (inactive)
C=CC[C@@H]1C=C[C@@H](C(=O)OC)n2c(=O)n(-c3ccccc3)c(=O)n21; > 100 µM (inactive)
O=C1NC2C(O)CCCCC2C12CCCCC2 (centres undefined); > 100 µM (inactive)
CC1=CC[C@H](C(C)C)C(C(O)[C@@H](C)O[Si](c2ccccc2)(c2ccccc2)C(C)(C)C)C1=O (some centres undefined); 17.9 µM (inactive)

## Task Look up GI50 of O=C(O)c1cc(C(=O)O)nc(C(=O)O)c1 and report it.
## Result > 100 µM (inactive)

----------
Test system: UACC-62
Experiment: NCI tumour cell line growth inhibition, 48 h
Calls of active or inactive are those of the source. Cut-off read from the data, not from the text of the source: active = GI50 up to about 1.1 µM and inactive = higher.
MEASURED ATTRIBUTE: GI50

Here are 5 compounds together with their reported answers.
O=C1c2ccccc2N(O)C1(c1ccccc1)C1CCCC=C1N1CCOCC1 (stereo not given); 35.8 µM (inactive)
C=C1CC(COc2ccc3c(C)c(C)c(=O)oc3c2C)(c2ccccc2)OC1=O (stereo not given); 1.69 µM (inactive)
CN(C)C(=O)NCCN1CCCCCc2ccccc21; > 100 µM (inactive)
Cc1ccc2nc(Cl)c(/C=N/N3C(=O)/C(=C/c4cccc([N+](=O)[O-])c4)N=C3c3ccccc3)cc2c1; 34 µM (inactive)
CC1=C2C3OC(=O)C(C)C3CCC2(C)C=C/C1=N\c1ccccc1 (stereo not given); > 100 µM (inactive)

## Task Give the value of GI50 reported for the following: Cc1c2c(c(C)n1-c1ccccc1)C(=O)N(CCSC(=N)N)C2=O
## Result > 100 µM (inactive)

----------
Attribute: GI50
Test system: Malme-3M
Assay: NCI tumour cell line growth inhibition, 48 h
Calls of active or inactive are those of the source. Cut-off read from the data, not from the text of the source: active = GI50 up to about 1.1 µM and inactive = higher.

// solved cases for GI50 follow
CC1CC2C3CCC4=CC(=O)C=CC4(C)C3(F)C(O)CC2(C)C1(O)C(=O)CO.Cc1cc(NS(=O)(=O)c2ccc(/N=N\c3cc(/N=N/c4ccc(S(=O)(=O)Nc5cc(C)nc(C)n5)cc4)c(OC(=O)C(Cl)Cl)c4cccc(NC(=O)C(Cl)Cl)c34)cc2)nc(C)n1; 20.6 µM (inactive)
CC(C)CCC[C@@H](C)C1CCC2[C@@H]3CC=C4C[C@@H](OC(=O)CCC(=O)NCC[N+](C)(C)CCCS(=O)(=O)[O-])CC[C@]4(C)C3CC[C@@]21C (some centres undefined); 22.5 µM (inactive)
CSC(=S)Nc1cc(C)cc(C)n1; > 31.6 µM (inactive)
NC(=O)COC(=O)c1c(Cl)nc2sccn12; > 100 µM (inactive)
O=c1/c(=C/c2ccccc2[N+](=O)[O-])sc2nnc(-c3ccco3)n12; 23 µM (inactive)

## Task Tell me its GI50 on Malme-3M: N#Cc1ccc(Oc2nc3ccccc3nc2C(=O)O)cc1
## Result > 100 µM (inactive)

## Task System Malme-3M. Read-out GI50. Item CCOC(OCC)C(CC)[Se]c1ccccc1 (centres undefined) . Report value.
## Result 5.02 µM (inactive)

## Task State the measured GI50 (Malme-3M) of Clc1ccc(Nc2nc(Cl)c3nc[nH]c3n2)cc1Cl
## Result 32.3 µM (inactive)

## Task For Malme-3M, give the measured GI50 of the entry [O-][S+]1SC(=S)C2C=CC=CC21 (centres undefined)
## Result 95.9 µM (inactive)

----------
As shown below, each of these compounds has a reported GI50 value.
System: K562
Assay: NCI tumour cell line growth inhibition, 48 h
Active and inactive are the calls of the source. Cut-off read from the data, not from the text of the source: active = GI50 up to about 1.1 µM and inactive = higher.

Recorded GI50, per entry:
CC1=C[C@H]([C@H]2C=C(C)C(C(N)=O)=CN2Cc2c(Cl)cccc2Cl)N(Cc2c(Cl)cccc2Cl)C=C1C(N)=O; > 75 µM (inactive)
C=C1C2CCCC1C1(S(C)(=O)=O)CCCCC21O (stereo unspecified); > 100 µM (inactive)
Cc1c(C=C(C#N)C#N)c(=O)n(C)c(=O)n1C; > 100 µM (inactive)
COC1CC(OC(=O)c2ccccc2)C(OC(=O)c2ccccc2)C(C)O1 (stereo unspecified); > 100 µM (inactive)
CC1NC(=O)C(C)C(c2ccccc2)N(N=O)C1c1ccccc1 (stereo unspecified); 33 µM (inactive)

Next:
## Task Kindly indicate its recorded GI50. Item: CC1(C)C2CCC(CN)(C2)C1O (stereo unspecified)
## Result > 100 µM (inactive)

----------
Tested on: SF-268
Test: NCI tumour cell line growth inhibition, 48 h
Calls of active or inactive are those of the source. Cut-off read from the data, not from the text of the source: active = GI50 up to about 1.1 µM and inactive = higher.
Below, each entry is listed with its recorded GI50.

## Task Provide one value: measured GI50 of Cc1c2c(c(C)n1-c1ccccc1)C(=O)N(CCSC(=N)N)C2=O
## Result > 100 µM (inactive)

----------
System: MOLT-4
Experiment: NCI tumour cell line growth inhibition, 48 h
Activity calls are given as the source filed them. No stated cut-off is given here; in the data, active = GI50 up to about 1.1 µM and inactive = higher.
MEASURED ATTRIBUTE: GI50

Completed entries (count: 3):
CC(=O)Nc1ccc(C(=O)NN2C(=O)C(Cl)/C2=C/c2ccco2)cc1 (centres undefined); > 100 µM (inactive)
CC(C)C1(NC(=O)C2CC3c4cccc5[nH]cc(c45)CC3N(C)C2)OC2(O)C3CCCN3C(=O)C(Cc3ccccc3)N2C1=O (centres undefined); 3.81 µM (inactive)
CC(C)CCC[C@@H](C)C1CCC2[C@@H]3CC=C4C[C@@H](OC(=O)CCC(=O)NCC[N+](C)(C)CCCS(=O)(=O)[O-])CC[C@]4(C)C3CC[C@@]21C (some centres undefined); 19.1 µM (inactive)

Below: the item to evaluate.
## Task Please give the documented GI50 of Cc1ccc(N2C(=O)C(O)=C(C(=O)C(C)(C)C)C2c2ccc([N+](=O)[O-])cc2)cc1 (centres undefined)
## Result 7.26 µM (inactive)

----------
Tested on: CCRF-CEM
Assay: NCI tumour cell line growth inhibition, 48 h
The source made the active and inactive calls. Rule as the data show it: active = GI50 up to about 1.1 µM and inactive = higher.
Outcome field: choose from yes (1) for active, no (0) for inactive

Observe how each entry below is paired with its result.
O=C1c2cccc3cccc(c23)C(=O)N1CCCN1CCN(CCCN2C(=O)c3cccc4cccc(c34)C2=O)CC1; no (0)
Clc1ccc(C2NN=C3c4ccccc4OCC32)cc1 (stereo unspecified); no (0)
OCC12C3C4C5C3C1C5C42 (stereo unspecified); no (0)
OCCCCCCOc1ccc(-c2cc(-c3ccccn3)nc(-c3ccccn3)c2)cc1; yes (1)
CNC(=S)N1CCN(C(C)=O)C1=S; no (0)

Consider now this further compound.
## Task Could you please tell me the result logged for Cc1cc(C(O)CNC(C)CCn2cnc3c2c(=O)n(C)c(=O)n3C)ccc1O (stereo unspecified) in this assay?
## Result no (0)
